- tested.system: Leucine aminopeptidase (Plasmodium falciparum 3D7)
- Sequence (Q8IL11 whole entry): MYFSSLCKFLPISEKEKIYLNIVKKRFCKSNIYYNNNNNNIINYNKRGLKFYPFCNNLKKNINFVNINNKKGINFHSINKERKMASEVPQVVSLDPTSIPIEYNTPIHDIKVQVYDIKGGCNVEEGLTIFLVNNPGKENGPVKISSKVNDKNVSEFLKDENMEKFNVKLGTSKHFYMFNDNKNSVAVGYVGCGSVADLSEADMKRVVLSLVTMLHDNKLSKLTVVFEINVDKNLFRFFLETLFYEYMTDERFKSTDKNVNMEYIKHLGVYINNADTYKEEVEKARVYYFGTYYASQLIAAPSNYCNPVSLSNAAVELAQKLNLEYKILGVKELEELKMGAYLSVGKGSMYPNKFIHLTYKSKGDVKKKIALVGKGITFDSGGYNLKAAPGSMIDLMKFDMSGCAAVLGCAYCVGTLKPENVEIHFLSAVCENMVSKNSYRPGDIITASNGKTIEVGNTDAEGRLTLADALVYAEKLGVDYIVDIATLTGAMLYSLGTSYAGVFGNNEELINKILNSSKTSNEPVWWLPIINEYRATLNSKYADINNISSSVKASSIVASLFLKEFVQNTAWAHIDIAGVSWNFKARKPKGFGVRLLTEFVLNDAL
- protocol.details: P. falciparum M17LAP inhibitors, primary screen, biochemical, fluorogenic H-Leu-NHMec substrate, 1536-well (AID 1619)
- Assay type: functional
The source made the active and inactive calls.
Known IC50 of a selection of molecules

Worked cases, IC50 given:
>  <molecule>
O=C(O)CCc1nnc(SCC(=O)Nc2ccc(Br)cc2)nc1O

>  <assay.metric>
IC50

>  <reported.measurement>
2.45 µM (active)

$$$$
>  <molecule>
CCN(CC)c1ccc(/C=C(/C#N)C(=O)NC(C)C)o1

>  <assay.metric>
IC50

>  <reported.measurement>
65.8 µM (active)

$$$$
>  <molecule>
CCCCCCSc1nc(O)c(C2OC(=O)c3c2ccc(OC)c3OC)c(=O)n1CC (stereo not given)

>  <assay.metric>
IC50

>  <reported.measurement>
3 µM (active)

$$$$
>  <molecule>
Cc1csc(NC(=O)CCCC(=O)O)c1-c1nc2ccccc2s1

>  <assay.metric>
IC50

>  <reported.measurement>
35.4 µM (active)

$$$$

Lab note: next molecule to report on.
[ask] IC50 for O=C(O)COc1ccccc1/C=C1\SC(=O)N(Cc2ccc(F)cc2)C1=O ?
[reply] 34.8 µM (active)

###

- protocol.details: inhibitors of HIV Env-driven cell fusion, dose response, cherry-pick (AID 652057)
- Assay type: functional, cell-based
Activity calls are given as the source filed them.
The entries below are paired with their reported AC50.

The examples below pair each entry with its known result.
>  <molecule>
C[C@H](CO)N1C[C@H](C)[C@H](CN(C)S(=O)(=O)c2ccccc2)Oc2ccc(NC(=O)Cc3ccccc3)cc2CC1=O

>  <assay.metric>
AC50

>  <reported.measurement>
< 0.26 µM (active)

$$$$
>  <molecule>
CC[C@]1(C(=O)OC)[C@H]2C(=O)N(Cc3ccccc3)C(=O)[C@H]2[C@H]2CN=C(SCc3ccccc3)N21

>  <assay.metric>
AC50

>  <reported.measurement>
1.01 µM (active)

$$$$
>  <molecule>
Cn1c(=O)c2c(nc(NCCc3ccccc3)n2Cc2ccccc2)n(C)c1=O

>  <assay.metric>
AC50

>  <reported.measurement>
30.8 µM (active)

$$$$

Could you now look at the following molecule, please?
[ask] Given the entry C/C=C1\COC(C(=O)NCc2cccc(OC)c2OC)(C(F)(F)F)C=C1C=C1CCCCC1 (centres undefined) , report its measured AC50.
[reply] 19.8 µM (active)

###

- tested.system: Prothrombin (Homo sapiens, UniProt P00734)
- protocol.details: Thrombin 1536 HTS Dose Response Confirmation. [Related pubchem assays: 1046 (Thrombin 1536 HTS; hits were confirmed in this assay)]
- Assay type: functional
Active and inactive are the calls of the source.
assay.metric: IC50

The examples below pair each entry with its known result.
>  <compound.smiles>
CCOc1ccc(OCC)c(NC(=O)CCS(=O)(=O)c2ccc(Br)s2)c1

>  <reported.measurement>
3.1 µM (active)

$$$$
>  <compound.smiles>
CS(=O)(=O)c1ccc2nc(NC(=O)c3ccc(NS(=O)(=O)c4cccc([N+](=O)[O-])c4)cc3)sc2c1

>  <reported.measurement>
> 50 µM (not active)

$$$$
>  <compound.smiles>
Cc1nn(C)c(C)c1S(=O)(=O)N1CCC(C(=O)NCCC2=CCCCC2)CC1

>  <reported.measurement>
> 50 µM (not active)

$$$$
>  <compound.smiles>
Cc1nnc2c(-c3ccccc3)nc3ccccc3n12

>  <reported.measurement>
> 50 µM (not active)

$$$$
>  <compound.smiles>
O=C(CCc1ccc(O)cc1)N/N=C/c1coc2ccccc2c1=O

>  <reported.measurement>
6.25 µM (active)

$$$$

[ask] Given Cc1ccccc1NC(=O)Nc1ccccc1Br , state its recorded IC50.
[reply] > 50 µM (not active)
